All figures here come from patent US20210087291A1.

molecular target: T1, human TIM-3 on cells (human, UniProt Q8TDQ0 22-301); test: flow cytometry, human CD14+ monocytes donor1
T1 construct: also called CHO-Tim3; rec CHOK1 cells expressing huTIM-3
endpoint label: specific binding MFI (MFI)
Reply with just the number (in MFI).

# example entries with known answers
Tim3_0021 (antibody, V domains shown) VH: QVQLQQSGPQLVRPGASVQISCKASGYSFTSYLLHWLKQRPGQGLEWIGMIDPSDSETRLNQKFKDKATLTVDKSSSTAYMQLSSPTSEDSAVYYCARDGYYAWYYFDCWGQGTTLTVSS VL: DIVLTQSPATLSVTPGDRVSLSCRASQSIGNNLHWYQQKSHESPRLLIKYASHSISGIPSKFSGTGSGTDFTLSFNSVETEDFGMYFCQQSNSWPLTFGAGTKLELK
1130
Tim3_0026 (antibody, V domains shown) VH: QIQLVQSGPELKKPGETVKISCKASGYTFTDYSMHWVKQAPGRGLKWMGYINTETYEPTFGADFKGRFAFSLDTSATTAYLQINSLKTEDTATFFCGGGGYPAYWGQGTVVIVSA VL: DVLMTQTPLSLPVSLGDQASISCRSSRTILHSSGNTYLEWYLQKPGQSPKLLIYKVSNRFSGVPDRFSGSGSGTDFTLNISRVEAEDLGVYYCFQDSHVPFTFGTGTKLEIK
1660

Now look at this one.
Quick one: specific binding MFI for Tim3_0028 (antibody, V domains shown) VH: EVQLQQSVAELVRPGASVKLSCTASGFNIKTTYMHWVKQRPEQGLEWIGRIDPADDNTKYAPKFQGKATITADTSSNTAYLQLSSLTSEDAAIYYCVRDFGYVAWFAYWGQGTLVTFSA VL: NIVMTPTPKFLPVSSGDRVTMTCRASQSVDNYVAWYQQKPGQSPKLLIYYASNRYIGVPDRFTGSGSGTDFTFTISSVQVEDLAVYFCQQHYSSPYTFGSGTKLEIK ?
1350
